- Test system: PRKG1
- setup-conditions: concentration: 1 μM, replicates: in singlicate; n = 1;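 further: KINOMEscan kinase panel screen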
reported-endpoint: %Inh (%)
Numbers only, in %.

// below: answered compounds
Quick one: %Inh of COc1ccc(CNC(=O)NC2CCN(c3ccnc(Nc4ccc(OC)cc4)n3)C2)cc1 (stereo not drawn) ?
0

Quick one: %Inh of Cc1nnc(-c2ccc3occ(-c4ccc(C(C)O)cc4)c3c2)o1 (stereo not drawn) ?
10

Quick one: %Inh of `NS(=O)(=O)c1cccc(-c2ccc3ncc(N4CCOCC4)nc3c2)c1` ?
0

Parameters: items (list). Returns: %Inh for each item.
1. NS(=O)(=O)CCc1cccc(Nc2nccc(-c3c(-c4cccc(NC(=O)c5c(F)cccc5F)c4)nn4ccccc34)n2)c1
2. O=c1cc(N2CCOCC2)nc2n(Cc3cccc(C(F)(F)F)c3)ccn12
3. CC(C)(C)n1cnc2c(N)ncnc21
4. COc1cc2c(cc1OCCN1CCN(C)CC1)ncc1c3ccc(C#N)cc3[nH]c21
5. COc1ccc(Nc2nccc(N3CCC(NC(=O)Nc4cccc(C(C)=O)c4)C3)n2)cc1 (stereo not drawn)
6. c1ccc(-c2cc(-c3c[nH]nc3-c3ccccn3)ccn2)cc1

1: 2; 2: 27; 3: 12; 4: 0; 5: 0; 6: 0

* * *

- Test system: INSRR
- setup-conditions: concentration: 1 μM, replicates: in singlicate; n = 1
reported-endpoint: %Inh (%)
Give bare numbers, in %.

Quick one: %Inh of `c1ccc(-c2cc(-c3c[nH]nc3-c3ccccn3)ccn2)cc1` ?
0

Quick one: %Inh of `COc1cc2c(cc1OCCN1CCN(C)CC1)ncc1c3ccc(C#N)cc3[nH]c21` ?
0

Parameters: items (list). Returns: %Inh for each item.
1. Cl.Nc1ncnc2occ(-c3ccc(NC(=O)Nc4cc(C(F)(F)F)ccc4F)cc3)c12
2. O=C(c1ccc(-c2cc(-c3c[nH]nc3-c3ccccn3)ccn2)cc1)N1CCOCC1
3. N#Cc1ccc(-c2cc(-c3c[nH]nc3-c3ccccn3)ccn2)cc1
4. COCCNC(=O)c1ccc(-c2cc(C(=O)NC3CC3)cc(F)c2C)cc1

1: 0; 2: 0; 3: 0; 4: 19

Parameters: items (list). Returns: %Inh for each item.
1. NS(=O)(=O)c1cccc(-c2ccc3nccc(-c4cccc(S(N)(=O)=O)c4)c3c2)c1
2. CCCCCc1nc2c(N)ncnc2n1CCCCC
3. CC(C)(C)n1cnc2c(N)ncnc21
4. O=c1cc(N2CCOCC2)nc2n(Cc3cccc(Cl)c3Cl)c(C3CC3)nn12
5. COc1cc2c(cc1OC[C@@H](O)CO)ncc1c3ccc(C#N)cc3[nH]c21
6. Cc1nnc(-c2ccc(C)c(-c3ccc(C(=O)Nc4ccc(NS(C)(=O)=O)cc4)cc3)c2)o1
7. N#Cc1c(N2CCOCC2)sc(-c2ccn[nH]2)c1-c1ccc(Cl)cc1
8. CN1c2ccc(NCc3ccc(F)cc3)cc2-c2c(cnn2C)S1(=O)=O

1: 6; 2: 0; 3: 0; 4: 0; 5: 0; 6: 0; 7: 0; 8: 16

* * *

Task for the reader: assign each of the following compounds its reported %Inh.
- System: NLK
- setup-conditions: concentration: 1 μM, replicates: in singlicate; n = 1
Field: value (include unit after the number)

Provide value of %Inh for this record tested with NLK: `Fc1ccc(-c2ncn(CCCN3CCOCC3)c2-c2cccnc2)cc1`
3%

Provide value of %Inh for this record tested with NLK: `NCCNS(=O)(=O)c1ccc(-c2ccnc3[nH]ccc23)cc1`
0%

Provide value of %Inh for this record tested with NLK: `[2H]C([2H])(c1cccc(C(F)(F)F)c1C)n1ccn2c(=O)nc(N3CCOCC3)cc12`
0%

Parameters: items (list). Returns: %Inh for each item.
1. CN(C(=O)c1ccc(-c2cc(-c3c[nH]nc3-c3ccccn3)ccn2)cc1)C1CCOCC1
2. NS(=O)(=O)c1cccc(-c2ccc3nccc(-c4cccc(S(N)(=O)=O)c4)c3c2)c1

1. 0%
2. 0%

Parameters: items (list). Returns: %Inh for each item.
1. Cc1ccc(NC(=O)c2ccnc(N3CCN(C)CC3)c2)cc1-c1ccc(C(=O)NCC2CC2)cc1
2. Cc1nnc(-c2ccc(C)c(-c3ccc(C(=O)Nc4ccc(NS(C)(=O)=O)cc4)cc3)c2)o1
3. Cc1c(Cn2c(C)nn3c(=O)cc(N4CCOC(C)C4)nc23)cccc1C(F)(F)F (centres unmarked)
4. COCCNC(=O)c1ccc(-c2cc(C(=O)NC3CC3)cc(F)c2C)cc1
5. O=C(NCCNc1ccnc(Nc2ccc(F)cc2)n1)c1cc2ccccc2s1
6. CCc1ccnc(/C=C/c2n[nH]c3cc(Sc4ccccc4C(=O)NC)ccc23)c1

0%
0%
0%
11%
0%
0%

Parameters: items (list). Returns: %Inh for each item.
1. COc1cc2ncn(-c3cc(OCc4sccc4Cl)c(C(N)=O)s3)c2cc1OC
2. CN1c2ccc(CNc3ccc(F)cc3)cc2-c2c(cnn2C)S1(=O)=O
3. COc1cc(Nc2nccc(N3CCC(NC(=O)c4cccc(NC(C)=O)c4)C3)n2)cc(OC)c1OC (centres unmarked)
4. CNc1ncnc2[nH]ncc12
5. O=c1cc(N2CCOCC2)nc2n(Cc3cccc(F)c3)ccn12
6. c1ccc(-c2n[nH]cc2-c2ccnc3ccccc23)nc1

0%
0%
0%
0%
0%
58%

* * *

- Tested on: LYN
- setup-conditions: concentration: 1 μM, replicates: in singlicate; n = 1
reported-endpoint: %Inh (%)
Numbers only, in %.

// below: answered molecules
Quick one: %Inh of `Cc1cccc(Cn2ccn3c(=O)cc(N4CCOCC4)nc23)c1` ?
0

Quick one: %Inh of `COc1cc2ncn(-c3cc(OCc4sccc4Cl)c(C(N)=O)s3)c2cc1OC` ?
0

Quick one: %Inh of `Fc1ccc(-c2ncn(CCCN3CCOCC3)c2-c2ccccn2)cc1` ?
0

Quick one: %Inh of `Fc1ccc(-c2ncn(CCCN3CCOCC3)c2-c2cccnc2)cc1` ?
0

Quick one: %Inh of `COc1ccc(COc2cc(-n3cnc4ccccc43)sc2C(N)=O)cc1` ?
0

Quick one: %Inh of `CNc1ncnc2[nH]ncc12` ?
0

Quick one: %Inh of `NS(=O)(=O)CCc1cccc(Nc2nccc(-c3c(-c4cccc(NC(=O)c5c(F)cccc5F)c4)nn4ccccc34)n2)c1` ?
97.8

Quick one: %Inh of `N#Cc1ccc(-c2cc(-c3c[nH]nc3-c3ccccn3)ccn2)cc1` ?
0

Quick one: %Inh of `CN(C1=C(c2ccccc2)C(=O)NC1=O)c1ccccc1` ?
0

Quick one: %Inh of `Cc1nnc(-c2ccc(C)c(-c3ccc(C(=O)Nc4ccc(NS(C)(=O)=O)cc4)cc3)c2)o1` ?
25

Parameters: items (list). Returns: %Inh for each item.
1. O=c1cc(N2CCOCC2)nc2n(Cc3cccc(Cl)c3Cl)c(C3CC3)nn12
2. Cc1cn2c(=O)cc(N3CCOCC3)nc2n1Cc1cccc(Cl)c1Cl
3. COc1cc(Nc2nccc(N3CCC(NC(=O)c4cccc(NC(C)=O)c4)C3)n2)cc(OC)c1OC (stereo not drawn)
4. Cn1cc(-c2ccc3c(c2)CCN3C(=O)Cc2ccccc2Cl)c2c(N)ncnc21
5. Cc1nnc(-c2ccc3occ(-c4ccc(C(C)O)cc4)c3c2)o1 (stereo not drawn)
6. c1ccc(-c2cc(-c3c[nH]nc3-c3ccccn3)ccn2)cc1

0
4
1
99.2
18
0

Parameters: items (list). Returns: %Inh for each item.
1. COc1cc2c(cc1OC[C@@H](O)CO)ncc1c3ccc(C#N)cc3[nH]c21
2. Cc1c2ccc(N(C)c3ccnc(Nc4cccc(S(N)(=O)=O)c4)n3)cc2nn1Cc1ccccc1.Cl.Cl
3. CN1c2ccc(NCc3ccc(F)cc3)cc2-c2c(cnn2C)S1(=O)=O
4. O=C(NCCCN1CCOCC1)c1cccc(Nc2nccc(Nc3ccc(Oc4ccccc4)cc3)n2)c1
5. CCn1cnc2c(N)ncnc21
6. COc1ccc(Nc2nccc(N3CCC(NC(=O)Nc4cc(C)ccc4C)C3)n2)cc1 (stereo not drawn)
7. COc1ccc(CNC(=O)NC2CCN(c3ccnc(Nc4ccc(OC)cc4)n3)C2)cc1 (stereo not drawn)

1. 0
2. 84
3. 0
4. 72
5. 0
6. 73
7. 0

Parameters: items (list). Returns: %Inh for each item.
1. Fc1ccc(-c2nn3c(OCC(F)(F)F)cccc3c2-c2ccncc2)cc1
2. CC(C)Oc1ccc2c(-c3ccnc(Nc4ccc(N5CCN(C)CC5)cc4)n3)cnn2n1
3. Cl.Nc1ncnc2occ(-c3ccc(NC(=O)Nc4cc(C(F)(F)F)ccc4F)cc3)c12
4. Cl.Oc1cccc(Nc2ccnc3cc(-c4ccncc4)ccc23)c1

1. 0
2. 34
3. 75
4. 86

* * *

- Tested on: SgK110
- setup-conditions: concentration: 1 μM, replicates: in singlicate; n = 1
Task for the reader: assign each of the following molecules its reported %Inh.
Field: value (include unit after the number)

Parameters: items (list). Returns: %Inh for each item.
1. Cc1cn2c(=O)cc(N3CCOCC3)nc2n1Cc1cccc(Cl)c1Cl
2. NS(=O)(=O)CCc1cccc(Nc2nccc(-c3c(-c4cccc(NC(=O)c5c(F)cccc5F)c4)nn4ccccc34)n2)c1
3. COC(=O)Nc1nc2cc(Oc3ccc(NC(=O)Nc4cc(F)ccc4F)cc3)ccc2[nH]1.Cl
4. CC(=O)Nc1ccc(COc2ccc(Nc3ccnc4cc(-c5ccccn5)ccc34)cc2)cc1.Cl
5. Fc1ccc(-c2ncn(CCCN3CCOCC3)c2-c2cccnc2)cc1
6. O=c1cc(N2CCOCC2)nc2n(Cc3cccc(C(F)(F)F)c3)ccn12
7. Cc1cccc(-c2nc(-c3ccc(S(C)(=O)=O)cc3)sc2-c2ccncc2)c1
8. CN1c2ccc(NCc3ccc(F)cc3)cc2-c2c(cnn2C)S1(=O)=O

0%
0%
0%
0%
17%
0%
2%
67%
